biological target: GST-tagged-Wee1 kinase (Homo sapiens); construct: purchased Carnabio 05-177; experiment: Wee1 time-resolved fluorescence equilibrium binding assay (displacement of Oregon Green-labeled ATP-competitive kinase probe); settings: enzyme binding data; GST-tagged-Wee1 kinase 2 nM, fluorescent probe 300 nM, inhibitor 0.003 to 10 micromolar, 1 hour incubation; read-out: Wee-1 binding (Ki nM)
Assay endpoint: Ki (nM)

Prompt: // lookup Ki for Cc1cn(-c2c(F)cccc2Cl)c(=O)c2cnc(Nc3ccc4c(c3)CNCC43CC3)nc12
Completion: 0.6

(1) Cc1cn(-c2c(Cl)cccc2Cl)c(=O)c2cnc(Nc3ccc(SCCN(C)C)cc3)nc12
(2) Cc1cccc(C)c1-n1cc(C)c2nc(Nc3ccc(N4CCC(N(C)C)CC4)cc3)ncc2c1=O
Prompt: Hey, between 1 and 2 which has a smaller measured Ki? Indicate which entry you chose by stating its label.
Completion: 1

(A) Cc1cn(-c2c(Cl)cccc2Cl)c(=O)c2cnc(Nc3ccc4c(c3)CN(C)C4(C)C)nc12
(B) C=Cc1cn(-c2c(Cl)cccc2Cl)c(=O)c2cnc(Nc3ccc4c(c3)CNCC4(C)C)nc12
Prompt: Of A and B , which carries the smaller reported Ki figure? Provide the label of your selected option as the answer.
Completion: A
(A: 0.2 nM, B: 0.5 nM)

(1) COC(=O)c1ccc(Cl)c(-n2cc(C)c3nc(Nc4ccc(N5CCC(N(C)C)CC5)cc4)ncc3c2=O)c1
(2) O=c1c2cnc(Nc3ccc4c(c3)CNCC4)nc2c(C(F)F)cn1-c1c(Cl)cccc1Cl
Prompt: Please indicate which item has the smaller measured Ki: 1 versus 2 Output the label that corresponds to your choice.
Completion: 2

(P) Cc1cccc(C)c1-n1cc(C)c2nc(Nc3ccc(N4CCN(CCCN(C)C)CC4)cc3)ncc2c1=O
(Q) Cc1cn(-c2c(Cl)cccc2Cl)c(=O)c2cnc(Nc3ccc4c(c3)CN(C3CCN(C)CC3)C4)nc12
Prompt: Given the two records P and Q , choose the one whose Ki value is lower. Let me know the label of the one you choose.
Completion: Q

(I) CN(C)C1CCN(c2ccc(Nc3ncc4c(=O)n(-c5c(Cl)cccc5Cl)cc(CF)c4n3)cc2)CC1
(II) Cc1cn(-c2c(F)cccc2Cl)c(=O)c2cnc(Nc3ccc4c(c3)CN(C)CC43CC3)nc12
Prompt: I'd appreciate it if you could identify which of I and II has the greater Ki. Reply with the label of the item you choose.
Completion: II
(II: 0.8 nM, I: 0.2 nM)

(P) O=c1c2cnc(Nc3ccc4c(c3)CC(N3CCCC3)C4)nc2c(C(F)F)cn1-c1c(Cl)cccc1Cl (centres unmarked)
(Q) Cc1cn(-c2c(Cl)cccc2Cl)c(=O)c2nnc(Nc3ccc4c(c3)CN(C)CC43CC3)nc12
(R) Cc1cn(-c2ccccc2O)c(=O)c2cnc(Nc3ccc4c(c3)CNCC4)nc12
Prompt: Arrange these 3 compounds in increasing order of Ki. List the labels according to the requested ordering.
Completion: P, R, Q

(P) Cc1cn(-c2c(Cl)cccc2Cl)c(=O)c2cnc(Nc3ccc4c(c3)CN(C)CC4(C)C)nc12
(Q) C=Cc1cn(-c2c(Cl)cccc2Cl)c(=O)c2cnc(Nc3ccc(N4CC5CNCC5C4)cc3)nc12 (centres unmarked)
Prompt: Could you point out whether the larger Ki belongs to P or to Q ? Answer = label.
Completion: Q

====

target: GST-tagged-Wee1 kinase (Homo sapiens, UniProt P30291); construct: purchased Carnabio 05-177; assay: Wee1 time-resolved fluorescence equilibrium binding assay (displacement of Oregon Green-labeled ATP-competitive kinase probe); settings: enzyme binding data; GST-tagged-Wee1 kinase 2 nM, fluorescent probe 300 nM, inhibitor 0.003 to 10 micromolar, 1 hour incubation; read-out: Wee-1 binding (Ki nM)
Sequence (P30291 whole entry): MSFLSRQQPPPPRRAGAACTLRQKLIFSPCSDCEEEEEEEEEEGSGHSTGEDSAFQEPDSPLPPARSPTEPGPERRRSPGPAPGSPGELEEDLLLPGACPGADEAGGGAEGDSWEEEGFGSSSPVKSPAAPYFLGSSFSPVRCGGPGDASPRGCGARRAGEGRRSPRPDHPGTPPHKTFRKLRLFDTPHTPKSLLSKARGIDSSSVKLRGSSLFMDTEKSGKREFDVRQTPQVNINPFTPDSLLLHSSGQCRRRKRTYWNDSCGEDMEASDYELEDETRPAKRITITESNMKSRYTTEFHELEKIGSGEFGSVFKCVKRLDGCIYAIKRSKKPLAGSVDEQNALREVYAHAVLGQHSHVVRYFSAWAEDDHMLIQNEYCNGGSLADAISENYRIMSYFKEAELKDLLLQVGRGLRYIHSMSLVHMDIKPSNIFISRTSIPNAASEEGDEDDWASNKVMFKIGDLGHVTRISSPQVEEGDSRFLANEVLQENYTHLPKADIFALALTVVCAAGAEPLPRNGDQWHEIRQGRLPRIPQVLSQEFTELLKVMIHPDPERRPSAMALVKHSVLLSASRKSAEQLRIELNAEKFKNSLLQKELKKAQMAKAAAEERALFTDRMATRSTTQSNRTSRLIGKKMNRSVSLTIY
Assay endpoint: Ki (nM)

Prompt: Param item = CNC(=O)CSc1ccc(Nc2ncc3c(=O)n(-c4c(Cl)cccc4Cl)cc(C)c3n2)cc1 ; retrieve measured Ki.
Completion: 0.8

(I) Cc1cn(-c2c(F)cccc2Cl)c(=O)c2cnc(Nc3ccc4c(c3)CN(C)CC4(C)C)nc12
(II) Cc1cn(-c2ccccc2Cl)c(=O)c2cnc(Nc3ccc(N4CCC(N(C)C)CC4)cc3)nc12
(III) CN(C)C1Cc2ccc(Nc3ncc4c(=O)n(-c5c(Cl)cccc5Cl)cc(C(F)F)c4n3)cc2C1 (stereo not shown)
Prompt: Given 3 compounds, produce a descending ranking by Ki. Give the labels in the order specified.
Completion: I, II, III

====

target: GST-tagged-Wee1 kinase (Homo sapiens); construct: purchased Carnabio 05-177; assay: Wee1 time-resolved fluorescence equilibrium binding assay (displacement of Oregon Green-labeled ATP-competitive kinase probe); conditions: enzyme binding data; GST-tagged-Wee1 kinase 2 nM, fluorescent probe 300 nM, inhibitor 0.003 to 10 micromolar, 1 hour incubation; read-out: Wee-1 binding (Ki nM)
Assay endpoint: Ki (nM)

// worked examples, Ki included
Prompt: Recorded Ki of O=c1c2cnc(Nc3ccc4c(c3)CCNC4)nc2c(C(F)F)cn1-c1c(Cl)cccc1Cl [Example 93] , please.
Completion: 0.358

Prompt: Note, next up: C=Cc1cn(-c2c(F)cccc2Cl)c(=O)c2cnc(Nc3ccc4c(c3)CC(N(C)C)C4)nc12 (centres unmarked) [Example 64]
Completion: 0.5

(1) Cc1cn(-c2cccc3cccnc23)c(=O)c2cnc(Nc3ccc4c(c3)CN(C)CC43CC3)nc12 [Example 97]
(2) CN(C)C1CCN(c2ccc(Nc3ncc4c(=O)n(-c5c(Cl)cccc5Cl)cc(C(F)F)c4n3)cc2)CC1 [Example 84]
Prompt: For the pair 1 and 2 , which member has the lower Ki number? Respond using the label that marks the chosen record.
Completion: 2

(1) O=c1c2cnc(Nc3ccc4c(c3)CCNC4)nc2c(CF)cn1-c1c(Cl)cccc1Cl [Example 110]
(2) Cc1cn(-c2ccccc2-c2cnco2)c(=O)c2cnc(Nc3ccc4c(c3)CNCC4)nc12 [Example 105]
Prompt: Compare 1 and 2 by numeric Ki and name the larger one. To answer, give the label that identifies your chosen option.
Completion: 2
(2: 122 nM, 1: 0.4 nM)

(P) Cc1cn(-c2c(Cl)cccc2Cl)c(=O)c2cnc(Nc3ccc(N4CCN(CCCN(C)C)CC4)cc3)nc12 [Example 131]
(Q) Cc1cn(-c2c(Cl)cccc2Cl)c(=O)c2cnc(Nc3ccc(NC4CCN(C)C4)cc3)nc12 (centres unmarked) [Example 125]
Prompt: Compare the recorded Ki of P and Q ; state which is larger. Write down the label of the entry you select.
Completion: Q
(Q: 0.3 nM, P: 0.2 nM)

====

biological target: GST-tagged-Wee1 kinase (Homo sapiens); construct: purchased Carnabio 05-177; assay: Wee1 time-resolved fluorescence equilibrium binding assay (displacement of Oregon Green-labeled ATP-competitive kinase probe); details: enzyme binding data; GST-tagged-Wee1 kinase 2 nM, fluorescent probe 300 nM, inhibitor 0.003 to 10 micromolar, 1 hour incubation; read-out: Wee-1 binding (Ki nM)
Assay endpoint: Ki (nM)

Prompt: Returns the measured Ki for the input compound. Input: Cc1cccc(F)c1-n1cc(C)c2nc(Nc3ccc(N4CCC(N(C)C)CC4)cc3)ncc2c1=O
Completion: 0.9

(P) Cc1cn(-c2c(F)cccc2Cl)c(=O)c2cnc(Nc3ccc4c(c3)CC(N(C)C)C4)nc12 (centres unmarked)
(Q) CNC(=O)CS(=O)(=O)c1ccc(Nc2ncc3c(=O)n(-c4c(Cl)cccc4Cl)cc(C)c3n2)cc1
Prompt: Between item P and item Q , which reported Ki is smaller? State the label of the item chosen.
Completion: Q

(P) CN(C)C1CCN(c2ccc(Nc3ncc4c(=O)n(-c5c(Cl)cccc5Cl)cc(CO)c4n3)cc2)CC1
(Q) C=Cc1cn(-c2c(Cl)cccc2Cl)c(=O)c2cnc(Nc3ccc4c(c3)CCNC4)nc12
Prompt: Compare reported Ki values for P and Q . Which is lower? Lab note: record the label of whichever item you select.
Completion: Q

(1) Cc1cn(-c2c(F)cccc2Cl)c(=O)c2cnc(Nc3ccc(N4CCN(C)CC4)cc3)nc12
(2) Cc1cn(-c2c(Cl)cccc2Cl)c(=O)c2cnc(Nc3ccc4c(c3)CNC4(C)C)nc12
Prompt: # returns the entry with the larger Ki; inputs 1 and 2 I would appreciate it if you answered with the label of your choice.
Completion: 1
(1: 0.9 nM, 2: 0.1 nM)

====

target: GST-tagged-Wee1 kinase (Homo sapiens); construct: purchased Carnabio 05-177; assay: Wee1 time-resolved fluorescence equilibrium binding assay (displacement of Oregon Green-labeled ATP-competitive kinase probe); details: enzyme binding data; GST-tagged-Wee1 kinase 2 nM, fluorescent probe 300 nM, inhibitor 0.003 to 10 micromolar, 1 hour incubation; read-out: Wee-1 binding (Ki nM)
Assay endpoint: Ki (nM)

Prompt: Entry CC1(C)CNCc2cc(Nc3ncc4c(=O)n(-c5c(Cl)cccc5Cl)cc(C(F)F)c4n3)ccc21 : reported Ki = ?
Completion: 0.265

Prompt: Continue with Cc1cn(-c2c(Cl)cccc2Cl)c(=O)c2cnc(Nc3ccc(N4CCN(CCN(C)C)CC4)cc3)nc12
Completion: 0.2

Prompt: What would you report for Cc1cn(-c2cccc3ccccc23)c(=O)c2cnc(Nc3ccc(N4CCC(N(C)C)CC4)cc3)nc12 ?
Completion: 2.8

Prompt: // next record O=c1c2cnc(Nc3ccc4c(c3)CNCC4)nc2c(CF)cn1-c1c(Cl)cccc1Cl
Completion: 0.3

Prompt: Quick one: Cc1cn(-c2c(Cl)cccc2Cl)c(=O)c2cnc(Nc3ccc4c(c3)CNCC4(C)C)nc12
Completion: 0.3

(A) Cc1cn(-c2c(Cl)cccc2Cl)c(=O)c2cnc(Nc3ccc(C4CCN(C)CC4)cc3)nc12
(B) Cc1cn(-c2c(F)cccc2Cl)c(=O)c2cnc(Nc3ccc4c(c3)CNCC4)nc12
Prompt: Between A and B , which one shows the smaller Ki number? Reply with the label of the item you choose.
Completion: A

(P) C=Cc1cn(-c2c(Cl)cccc2Cl)c(=O)c2cnc(Nc3ccc4c(c3)CNCC43CC3)nc12
(Q) COC(=O)c1cc(Nc2ncc3c(=O)n(-c4c(Cl)cccc4Cl)cc(C)c3n2)ccc1N1CCN(C)CC1
Prompt: Identify the item whose Ki is the smaller number: P or Q Mark your selection by writing its label.
Completion: Q
(Q: 0.2 nM, P: 0.4 nM)
